Tested on: Saccharomyces cerevisiae
Assay type: cell-based
Settings: Fungi; second part of Table 2
No end group written: not given here.
OBSERVABLE: Minimal Inhibitory Concentrations (μg/m)
Value expressed in μg/m; do not type the unit.

Quick check: Minimal Inhibitory Concentrations of RLLRRLLRRLLRRLLRRLLR [Seq No. 13] ?
8

Next substance: RLLRRLLRRLLRRLLR [(RLLR)4]
8

Further, for RKGLQKLVGRVHRLLRK [Seq No. 12] ?
4

Please do the same for Arg Ala Gly Leu Gln Phe Pro Val Gly Arg Val His Arg Leu Leu Arg Lys-NH2 (RAGLQFPVGRVHRLLRK-NH2) [Seq No. 16] as well.
2

Same again, this time with RLLRRLLRRLLR [(RLLR)3]
32

Continue with RAGLQFPVGRLLRRLLR [Buf(5-13)[RLLR]2]
8

Another substance to look at: RAGLQFPVGRLLR [Buf(5-13)[RLLR]]
32

Please give the result for RAGLQFPVGRLLRRLLRRLLR [Seq No. 15] too.
4

###

Tested on: Serratia sp.
Assay type: cell-based
Details: Gram-negative; second part of Table 2
No end group written: not given here.
OBSERVABLE: Minimal Inhibitory Concentrations (μg/m)
Supply the numeric figure in μg/m, leaving out any unit text.

What value of measured Minimal Inhibitory Concentrations is listed for RAGLQFPVGRLLRRLLRRLLR [Seq No. 15] ?
1

Let us now turn to Arg Ala Gly Leu Gln Phe Pro Val Gly Arg Val His Arg Leu Leu Arg Lys-NH2 (RAGLQFPVGRVHRLLRK-NH2) [Seq No. 16]
1

How about this substance: RLLRRLLRRLLRRLLRRLLR [Seq No. 13]
1

Now give it for RKGLQKLVGRVHRLLRK [Seq No. 12] too.
4

Now consider RAGLQFPVGRLLR [Buf(5-13)[RLLR]] and answer again.
32

###

System: Bacillus subtilis
Type: cell-based
Conditions: Gram-positive; second part of Table 2
No end group written: not given here.
OBSERVABLE: Minimal Inhibitory Concentrations (μg/m)
The answer is to be given in μg/m; state only the numeric part.

Need Minimal Inhibitory Concentrations of RAGLQFPVGRLLR [Buf(5-13)[RLLR]] , thanks.
32

Now give it for RLLRRLLRRLLR [(RLLR)3] too.
16

Next sequence: RAGLQFPVGRLLRRLLRRLLR [Seq No. 15]
1

What about RLLRRLLRRLLRRLLRRLLR [Seq No. 13] ?
2

###

System: Serratia sp.
Type: cell-based
Details: Gram-negative; second part of Table 2
Procedure: By using the peptides as in Example 1, the minimal inhibitory concentration of the peptides were determined against a variety of microorganisms. Bacteria and fungi were incubated overnight in Mller-Hinton and Saboraud media, respectively, at 37 and 30° C., respectively, and were inoculated in media for 2 hours to a midlogarithmic phase. […] The minimal inhibitory concentration was determined at a concentration that inhibits the growth of the microorganisms by measuring the absorbance.
No end group written: not given here.
Answer each item with its documented Minimal Inhibitory Concentrations.
Provide a numeric answer, followed by its unit.

Give the measured Minimal Inhibitory Concentrations of RVHRLLRRVHRLLRRVHRLLR [Seq No. 14] .
3 μg/m

One more sequence: RLLRRLLRRLLR [(RLLR)3]
16 μg/m

Another sequence: RAGLQFPVGRLLRRLLR [Buf(5-13)[RLLR]2]
8 μg/m

Request: RLLRRLLRRLLRRLLR [(RLLR)4]
1 μg/m

Where do the numbers come from? From patent US6531446B1.
